target: murine IL-21R expressed on cells (murine, UniProt Q9JHX3 20-529); assay: cell-based or functional assay
Sequence (Q9JHX3 20-529 limits assumed): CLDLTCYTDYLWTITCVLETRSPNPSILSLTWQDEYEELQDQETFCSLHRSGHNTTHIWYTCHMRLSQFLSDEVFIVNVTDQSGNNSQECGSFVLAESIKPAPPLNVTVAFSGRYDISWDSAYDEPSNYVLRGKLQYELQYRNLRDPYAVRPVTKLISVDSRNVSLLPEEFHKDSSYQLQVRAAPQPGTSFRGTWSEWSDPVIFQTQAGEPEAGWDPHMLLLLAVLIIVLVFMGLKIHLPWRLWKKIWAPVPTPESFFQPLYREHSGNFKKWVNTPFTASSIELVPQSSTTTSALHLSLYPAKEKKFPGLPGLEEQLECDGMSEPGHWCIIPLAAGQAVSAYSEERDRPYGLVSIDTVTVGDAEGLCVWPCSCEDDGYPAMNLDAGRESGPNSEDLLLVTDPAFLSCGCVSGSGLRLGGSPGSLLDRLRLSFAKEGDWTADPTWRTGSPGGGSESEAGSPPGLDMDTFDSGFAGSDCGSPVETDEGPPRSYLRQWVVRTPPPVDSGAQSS
reported.endpoint: Murine IL-21R-BaF3 Neutralization IC50 (nM)
Supply the numeric figure in nM, leaving out any unit text.

- binder: "AbT (antibody, human IgG1, V domains shown, Human IgG1 triple-mutant (L234A, L235A, G237A); Framework limits derived; also called VHP/VL9; VHPTM/VL9) VH: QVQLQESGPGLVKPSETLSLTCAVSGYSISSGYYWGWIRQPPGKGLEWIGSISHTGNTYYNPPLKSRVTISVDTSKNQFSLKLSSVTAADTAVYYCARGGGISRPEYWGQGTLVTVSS VL: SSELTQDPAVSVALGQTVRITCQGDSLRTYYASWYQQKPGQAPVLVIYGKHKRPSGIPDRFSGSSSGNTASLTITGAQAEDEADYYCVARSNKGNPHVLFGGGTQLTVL"
  Murine IL-21R-BaF3 Neutralization IC50 (nM): 0.05
- binder: "AbR (antibody, human IgG1, V domains shown, Purified form: human IgG1 double-mutant (L234A, G237A); Framework limits derived; also called VH3/VL18; VH3DM/VL18) VH: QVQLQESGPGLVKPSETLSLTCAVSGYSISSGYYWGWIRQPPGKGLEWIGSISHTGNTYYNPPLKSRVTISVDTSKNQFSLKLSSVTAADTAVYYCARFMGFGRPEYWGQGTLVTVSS VL: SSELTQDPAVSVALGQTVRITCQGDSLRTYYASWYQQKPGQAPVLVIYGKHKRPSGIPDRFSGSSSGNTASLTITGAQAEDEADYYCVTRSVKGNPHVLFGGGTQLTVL"
  Murine IL-21R-BaF3 Neutralization IC50 (nM): 0.34
- binder: "AbS (antibody, human IgG1, V domains shown, Human IgG1 triple-mutant (L234A, L235A, G237A); Framework limits derived; also called VHP/VL6; VHPTM/VL6) VH: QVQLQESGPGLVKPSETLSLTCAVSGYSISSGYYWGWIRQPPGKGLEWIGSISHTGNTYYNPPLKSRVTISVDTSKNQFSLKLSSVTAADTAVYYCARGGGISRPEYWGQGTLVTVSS VL: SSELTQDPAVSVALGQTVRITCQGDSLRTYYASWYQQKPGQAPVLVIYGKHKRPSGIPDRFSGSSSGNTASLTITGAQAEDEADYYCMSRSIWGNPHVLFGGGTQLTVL"
  Murine IL-21R-BaF3 Neutralization IC50 (nM): 0.04

Could you now look at the following binder, please?
Query string: Name the reported Murine IL-21R-BaF3 Neutralization IC50 value associated with the binder parental 18A5 antibody (antibody, V domains shown) VH: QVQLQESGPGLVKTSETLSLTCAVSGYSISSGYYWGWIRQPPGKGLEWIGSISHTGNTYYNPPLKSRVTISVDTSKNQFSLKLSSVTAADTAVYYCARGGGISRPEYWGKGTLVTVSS VL: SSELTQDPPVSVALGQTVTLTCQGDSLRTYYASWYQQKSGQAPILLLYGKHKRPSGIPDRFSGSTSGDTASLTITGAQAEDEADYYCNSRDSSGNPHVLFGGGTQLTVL
Result string: 177
